Test system: SNB-78
Experiment: NCI tumour cell line growth inhibition, 48 h
Active and inactive are the calls of the source. Cut-off read from the data, not from the text of the source: active = GI50 up to about 1.1 µM and inactive = higher.
PROPERTY MEASURED: GI50

MOLECULE	PROPERTY MEASURED	OBS VALUE
NC(=S)N/N=C/C(O[C@@H](/C=N/NC(N)=S)CO)n1cnc2c(N)ncnc21 (some centres undefined)	GI50	> 100 µM (inactive)
C/C(=C/c1c(C)[nH]c(=O)[nH]c1=O)C(=O)O	GI50	> 1370 µM (inactive)
O=C1/C(=C/c2ccccc2)CN(C(=O)C(Cl)(Cl)Cl)C/C1=C\c1ccccc1	GI50	2.72 µM (inactive)
C=C(Br)N(CC)CC	GI50	> 100 µM (inactive)

###

Tested on: Malme-3M
Assay: NCI tumour cell line growth inhibition, 48 h
The source made the active and inactive calls. No stated cut-off is given here; in the data, active = GI50 up to about 1.1 µM and inactive = higher.

MOLECULE	TEST SYSTEM	GI50
CCCCCCCCCCCCCCCC(=O)N(CCCCCCCCCCC(=O)O)CC(O)C(O)C(OC1OC(CO)C(O)C(O)C1O)C(O)CO (centres undefined)	Malme-3M	19.5 µM (inactive)
Cc1n[nH]c(C(F)(F)F)c1/N=N/N(C)C	Malme-3M	16.6 µM (inactive)
CN(C(=O)Cc1cc(Cl)c(Cl)cc1NC(=O)CCCN)[C@H]1CCCC[C@@H]1N1CCCC1	Malme-3M	17.1 µM (inactive)
COc1ccccc1-c1nc(O)c2ccccc2n1	Malme-3M	> 100 µM (inactive)
Cc1ccc(OCC(=O)N2N=C(c3ccccc3)CC2(O)c2ccccc2)cc1 (centres undefined)	Malme-3M	> 100 µM (inactive)
COc1cc(C2c3cc4c(cc3C(NCC(O)CO)C3COC(=O)[C@H]23)OCO4)cc(OC)c1OC (some centres undefined)	Malme-3M	> 100 µM (inactive)
Nc1nc2cc(Cl)ccc2n1N	Malme-3M	> 100 µM (inactive)
CO[C@H](C(=O)O[C@H]1C(=O)N2CCC3CCC1C32C)c1ccccc1 (some centres undefined)	Malme-3M	> 100 µM (inactive)
NC(=S)N/N=C/C(O[C@@H](/C=N/NC(N)=S)CO)n1cnc2c(N)ncnc21 (some centres undefined)	Malme-3M	> 100 µM (inactive)

###

System: KM12
Test: NCI tumour cell line growth inhibition, 48 h
Activity calls are given as the source filed them. No stated cut-off is given here; in the data, active = GI50 up to about 1.1 µM and inactive = higher.
Possible outcomes: Yes (active), No (inactive)

MOLECULE	TEST SYSTEM	ANSWER LABEL
C[C@@]12CCC(=O)C=C1CC[C@H]1C2=CC[C@]2(C)C1CC[C@@]2(C)O (some centres undefined)	KM12	No
CCn1c(-c2ccc(C)cc2)cs/c1=N\C(P(=O)(O)O)P(=O)(O)O	KM12	No
COc1cccc(/C=C\c2cc(OC)c(OC)c(OC)c2)c1	KM12	Yes
CC(NC(=O)c1ccc(OP(=O)(OCC2=CC(=O)c3ccccc3C2=O)N(C)CCCCCl)cc1)c1ccc(OCC2CCCCC2)c(C(N)=O)c1 (centres undefined)	KM12	No
CCOc1ccccc1NC(=O)C(=O)CC(=O)C1=C(C)Nc2ccccc2S1	KM12	No
COC(=O)c1c(O)ccc2c1c1c(n2Cc2ccccn2)C(=O)c2ccccc2C1=O	KM12	No
COc1c(C(=O)CC2c3c(cc4oc(C)cc(=O)c4c3OC)OC(=N)C2c2nc3ccccc3[nH]2)c(O)c(OC)c2occc12 (centres undefined)	KM12	No
O=c1[nH]cc(/C=N\Nc2ccccc2)c(=O)[nH]1	KM12	No
Cc1n[nH]c(C(F)(F)F)c1/N=N/N(C)C	KM12	No
C/N=C(\Nc1cccc(C(F)(F)F)c1)SCc1ccc(N=C=S)cc1	KM12	No
O=C(NO)c1cccc(OCc2ccc(Br)cc2)c1	KM12	No
Nc1ccc(S(=O)(=O)Nc2nc3ccccc3nc2Nc2ccc(S(N)(=O)=O)cc2)cc1	KM12	No
CC/C=C\C/C=C\C/C=C\CCCCCCCC(=O)OCC(O)CO (centres undefined)	KM12	No
CC1(C)OCC[C@@H]1[Si](C)(C)C	KM12	No
